tested on: Rape; assay: pre-emergence herbicide test; assay type: in vivo; details: pre-emergence, 0.25 lb/A; read-out: % plant inhibition
quantity: inhibition at 280.212 g/ha (%)
Numbers only, in %.

Worked examples follow.
compound=Cc1c(-c2cc(C(=O)OCC(=O)OC(C)C)c(Cl)cc2F)nn(C)c1C(F)(F)F system=Rape endpointvalue=75
compound=Cc1c(-c2cc(C(=O)OC(C)C)c(Cl)cc2F)nn(C)c1C(F)(F)F system=Rape endpointvalue=98
compound="Cc1c(-c2cc(C(=O)OCC3CNCCO3)c(Cl)cc2F)nn(C)c1C(F)(F)F (stereo not shown)" system=Rape endpointvalue=5

QUERY: Look up inhibition at 280.212 g/ha for this compound: "CSCc1cc(-c2nn(C)c(C(F)(F)F)c2C)c(F)cc1Cl"
RESULT: 10

----------
tested on: Blackgrass; test: post-emergence herbicide test; format: in vivo; details: Alopecurus myosuroides, post-emergence, 0.893 lb/A; Table 4a; read-out: % plant inhibition
Exercise: for every item that follows, state its recorded inhibition at 1000.92 g/ha.
Numbers only, in %.

Here are 5 molecules together with their reported answers.
molecule="COc1cc(-c2nn(C)c(C(F)(F)F)c2C)c(F)cc1[N+](=O)[O-] [Compound 36]" endpointvalue=0
molecule="Cc1c(-c2cc(F)c([N+](=O)[O-])cc2F)nn(C)c1C(F)(F)F [Compound 35]" endpointvalue=0
molecule="Cn1nc(-c2cc(F)ccc2F)c(C=O)c1C(F)(F)F [Compound 34]" endpointvalue=0
molecule="Cc1c(-c2cc(O)c(Cl)cc2F)nn(C)c1C(F)(F)F [Compound 40]" endpointvalue=50
molecule="C#CCOc1cc(-c2nn(C)c(C(F)(F)F)c2C)c(F)cc1Cl [Compound 39]" endpointvalue=70

// each molecule listed below needs its inhibition at 1000.92 g/ha
1. COc1cc(-c2nn(C)c(C(F)(F)F)c2C)c(F)cc1Cl [Compound 37]
2. Cc1c(-c2cc(F)ccc2F)nn(C)c1C(F)(F)F [Compound 1]
3. Cc1c(-c2cc(OCC(=O)OC(C)C)c(Cl)cc2F)nn(C)c1C(F)(F)F [Compound 38]

RESULT:
15
0
0

----------
test system: Rape; test: pre-emergence herbicide test; format: in vivo; conditions: pre-emergence, 0.25 lb/A; read-out: % plant inhibition
quantity: inhibition at 280.212 g/ha (%)
One number for each entry, in %.

compound=Cc1c(-c2cc(CS(C)(=O)=O)c(Cl)cc2F)nn(C)c1C(F)(F)F system=Rape endpointvalue=5
compound=Cc1c(-c2cc(CSCC(C)C)c(Cl)cc2F)nn(C)c1C(F)(F)F system=Rape endpointvalue=5
compound=Cc1c(-c2cc(CO)c(Cl)cc2F)nn(C)c1C(F)(F)F system=Rape endpointvalue=30
compound=Cc1c(-c2cc(CBr)c(Cl)cc2F)nn(C)c1C(F)(F)F system=Rape endpointvalue=50
compound=CCCCCCCCCCCCOC(=O)c1cc(-c2nn(C)c(C(F)(F)F)c2C)c(F)cc1Cl system=Rape endpointvalue=0
compound=CCCOC(=O)c1cc(-c2nn(C)c(C(F)(F)F)c2C)c(F)cc1Cl system=Rape endpointvalue=50
compound=CCCCCOC(=O)c1cc(-c2nn(C)c(C(F)(F)F)c2C)c(F)cc1Cl system=Rape endpointvalue=5
compound=Cc1c(-c2cc(C(=O)OCc3ccccc3)c(Cl)cc2F)nn(C)c1C(F)(F)F system=Rape endpointvalue=5
compound=CC(=O)CCCOC(=O)c1cc(-c2nn(C)c(C(F)(F)F)c2C)c(F)cc1Cl system=Rape endpointvalue=5
compound=Cc1cc(-c2nn(C)c(C(F)(F)F)c2C)c(O)cc1Cl system=Rape endpointvalue=55

Report inhibition at 280.212 g/ha for each item below.
1. COCC(C)OC(=O)c1cc(-c2nn(C)c(C(F)(F)F)c2C)c(F)cc1Cl (stereo not drawn)
2. CC(C)OC(=O)c1cc(-c2nn(C)c(C(F)(F)F)c2CO)c(F)cc1Cl
3. CCC(CC)COC(=O)c1cc(-c2nn(C)c(C(F)(F)F)c2C)c(F)cc1Cl
4. CCOC(=O)C(C)OC(=O)c1cc(-c2nn(C)c(C(F)(F)F)c2C)c(F)cc1Cl (stereo not drawn)

RESULT:
1: 60; 2: 5; 3: 5; 4: 95

I would be grateful if you could provide inhibition at 280.212 g/ha for each of the following entries.
1. Cc1cc(-c2nn(C)c(C(F)(F)F)c2C)c(F)cc1Cl
2. CC(C)OC(=O)c1cc(-c2nn(C)c(C(F)(F)F)c2C(F)F)c(F)cc1Cl
3. Cc1c(-c2cc(C(=O)OCCC(C)C)c(Cl)cc2F)nn(C)c1C(F)(F)F
4. C=CCOC(=O)c1cc(-c2nn(C)c(C(F)(F)F)c2C)c(F)cc1Cl

RESULT:
10
65
5
0

----------
tested on: Birdseye Speedwell; test: pre-emergence herbicide test; type: in vivo; conditions: pre-emergence, 0.25 lb/A; read-out: % plant inhibition
quantity: inhibition at 280.212 g/ha (%)
One number for each entry, in %.

A selection of reference data follows.
compound="Cc1c(-c2cc(CSCC(C)C)c(Cl)cc2F)nn(C)c1C(F)(F)F [Compound 32]" endpointvalue=45
compound="Cc1c(-c2cc(C(=O)OCC(C)C)c(Cl)cc2F)nn(C)c1C(F)(F)F [Compound 45]" endpointvalue=100
compound="Cc1c(-c2cc(CBr)c(Cl)cc2F)nn(C)c1C(F)(F)F [Compound 10]" endpointvalue=50
compound="CCOC(=O)C(C)OC(=O)c1cc(-c2nn(C)c(C(F)(F)F)c2C)c(F)cc1Cl (stereo not shown) [Compound 20]" endpointvalue=100

Dear colleague, could you please provide inhibition at 280.212 g/ha for the compounds listed below?
1. Cc1c(-c2cc(CS(C)(=O)=O)c(Cl)cc2F)nn(C)c1C(F)(F)F [Compound 28]
2. COCc1cc(-c2nn(C)c(C(F)(F)F)c2C)c(F)cc1Cl [Compound 11]
3. Cc1c(-c2cc(CS)c(Cl)cc2F)nn(C)c1C(F)(F)F [Compound 30]

RESULT:
[70, 95, 50]

----------
test system: Wheat; assay: post-emergence herbicide test; assay type: in vivo; conditions: Triticum aestivum, post-emergence, 0.893 lb/A; read-out: % plant inhibition
Label f if inhibition at 1000.92 g/ha falls below 10%; label t in every other case.

Please review the entries below; each comes with its answer.
compound="Cc1c(-c2cc(O)c(Cl)cc2F)nn(C)c1C(F)(F)F [Compound 40]" system=Wheat classassignment=t
compound="COc1cc(-c2nn(C)c(C(F)(F)F)c2C)c(F)cc1[N+](=O)[O-] [Compound 36]" system=Wheat classassignment=t
compound="C#CCOc1cc(-c2nn(C)c(C(F)(F)F)c2C)c(F)cc1Cl [Compound 39]" system=Wheat classassignment=t
compound="Cc1c(-c2cc(F)ccc2F)nn(C)c1C(F)(F)F [Compound 1]" system=Wheat classassignment=f
compound="COc1cc(-c2nn(C)c(C(F)(F)F)c2C)c(F)cc1Cl [Compound 37]" system=Wheat classassignment=t

QUERY: Does inhibition at 1000.92 g/ha meet or surpass 10% for Cn1nc(-c2cc(F)ccc2F)c(C=O)c1C(F)(F)F [Compound 34] ?
RESULT: f

QUERY: Subsequent entry: Cc1c(-c2cc(F)c([N+](=O)[O-])cc2F)nn(C)c1C(F)(F)F [Compound 35]
RESULT: t

----------
system: Common Chickweed; test: post-emergence herbicide test; type: in vivo; conditions: post-emergence, 4.5 lb/A; read-out: % plant inhibition
I'd appreciate it if you could supply inhibition at 5043.82 g/ha values for the items below.
Numbers only, in %.

compound="Cc1c(-c2cc(O)c(Cl)cc2F)nn(C)c1C(F)(F)F [Compound 40]" quantity="inhibition at 5043.82 g/ha" readoutunits=% endpointvalue=98
compound="Cc1c(-c2cc(F)ccc2F)nn(C)c1C(F)(F)F [Compound 1]" quantity="inhibition at 5043.82 g/ha" readoutunits=% endpointvalue=40

List the reported inhibition at 5043.82 g/ha of each compound below.
1. Cc1c(-c2cc(F)c([N+](=O)[O-])cc2F)nn(C)c1C(F)(F)F [Compound 35]
2. Cn1nc(-c2cc(F)ccc2F)c(C=O)c1C(F)(F)F [Compound 34]

RESULT:
[35, 0]

----------
tested on: Birdseye Speedwell; assay: pre-emergence herbicide test; format: in vivo; conditions: pre-emergence, 0.25 lb/A; read-out: % plant inhibition
Provide the reported inhibition at 280.212 g/ha of each item.
One number for each entry, in %.

// each molecule listed below needs its inhibition at 280.212 g/ha
1. CCOC(=O)c1cc(-c2nn(C)c(C(F)(F)F)c2C)c(F)cc1Cl
2. CC(C)OC(=O)c1cc(-c2nn(C)c(C(F)(F)F)c2CO)c(F)cc1Cl

RESULT:
1: 100; 2: 98

Your task in this section: give inhibition at 280.212 g/ha for each listed record.
1. Cn1nc(-c2cc(C(=O)O)c(Cl)cc2F)c(C=O)c1C(F)(F)F
2. CCCOC(=O)c1cc(-c2nn(C)c(C(F)(F)F)c2C)c(F)cc1Cl
3. C=CCOC(=O)c1cc(-c2nn(C)c(C(F)(F)F)c2C)c(F)cc1Cl
4. Cc1c(-c2cc(CO)c(Cl)cc2F)nn(C)c1C(F)(F)F
5. Cc1c(-c2cc(C(=O)OCCC(C)C)c(Cl)cc2F)nn(C)c1C(F)(F)F
6. Cc1c(-c2cc(C(=O)OCC3CNCCO3)c(Cl)cc2F)nn(C)c1C(F)(F)F (stereo not drawn)
7. C#CCOC(=O)c1cc(-c2nn(C)c(C(F)(F)F)c2C)c(F)cc1Cl
8. Cc1c(-c2cc(C(=O)OC(C)C)c(Cl)cc2F)nn(C)c1C(F)(F)F

RESULT:
1: 0; 2: 100; 3: 98; 4: 90; 5: 90; 6: 70; 7: 30; 8: 100

Taken from patent US5672715A.
